- assaySystem: Glutathione S-transferase omega-1 (Homo sapiens) (UniProt P78417)
- Sequence (P78417 whole entry, looked up): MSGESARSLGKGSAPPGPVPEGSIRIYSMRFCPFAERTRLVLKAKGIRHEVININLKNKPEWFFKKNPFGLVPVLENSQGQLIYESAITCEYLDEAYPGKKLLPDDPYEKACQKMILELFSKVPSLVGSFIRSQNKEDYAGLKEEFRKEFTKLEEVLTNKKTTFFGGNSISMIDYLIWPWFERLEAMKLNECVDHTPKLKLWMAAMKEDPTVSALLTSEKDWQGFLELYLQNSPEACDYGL
- procedureSummary: selectivity of GSTO1 blockers across lysate enzymes – cell lysate, MDA-MB-435 proteome, gel ABPP, endogenous enzyme, selectivity assay for GSTO1 inhibitor project, late-stage follow-up (AID 463102)
- conditionsUsed: competitive gel ABPP, SE-Rh probe, GSTO1 inhibition, at 1 µM, stronger effect = higher value
measurementName: inhibition (%)
Numbers only; they are read as %.

O=C(CCl)N(CCCCNC(=O)C(F)(F)F)c1ccc([N+](=O)[O-])cc1
100
C#CCNC(=O)C(c1ccc(OC)cc1)N(C(=O)CCl)c1ccc(Cl)cc1 (stereo not given)
100

Input: Answer with reported inhibition of C#CCCCCNC(=O)C(c1ccc(OC)cc1)N(C(=O)CCl)c1cccc(Cl)c1 (stereo not given)
Output: 100

Input: Answer with reported inhibition of COc1ccc(C(C(=O)NC2CCCCC2)N(C(=O)CCl)c2cccc(Cl)c2)cc1 (stereo not given)
Output: 100

Input: Answer with reported inhibition of COc1ccc(C(C(=O)NC2CCCCC2)N(C(=O)CCl)c2ccc(Cl)cc2)cc1 (stereo not given)
Output: 100

====

- assaySystem: Glutathione S-transferase omega-1 (Homo sapiens) (UniProt P78417)
- procedureSummary: selectivity of GSTO1 blockers across lysate enzymes – cell lysate, MDA-MB-435 proteome, gel ABPP, endogenous enzyme, selectivity assay for GSTO1 inhibitor project, late-stage follow-up (AID 463102)
- conditionsUsed: competitive gel ABPP, SE-Rh probe, GSTO1 inhibition, at 1 µM, stronger effect = higher value
Quick list: inhibition per entry.
Numbers only; they are read as %.

See these solved cases before continuing.
O=C(CCl)N(CCCCCNC(=O)C(F)(F)F)c1ccc([N+](=O)[O-])cc1
100
O=c1[nH]c(CCl)nc2cc(-c3ccc(F)cc3)sc12
100

From here, focus on the item given below.
Input: Please look at `Cc1ccc(N(CCCNC(=O)C(F)(F)F)C(=O)CCl)cc1` and tell me its recorded inhibition on Glutathione S-transferase omega-1 (Homo sapiens) (UniProt P78417).
Output: 55

====

Quick list: inhibition per entry.
- assaySystem: Glutathione S-transferase omega-1 (Homo sapiens) (UniProt P78417)
- procedureSummary: selectivity of GSTO1 blockers across lysate enzymes – cell lysate, MDA-MB-435 proteome, gel ABPP, endogenous enzyme, selectivity assay for GSTO1 inhibitor project, late-stage follow-up (AID 463102)
- conditionsUsed: competitive gel ABPP, SE-Rh probe, at 0.1 µM, stronger effect = higher value
Numbers only; they are read as %.

See these solved cases before continuing.
O=C(NC1CCCCC1)C(c1cccnc1)N(C(=O)CCl)c1ccc(Cl)cc1 (stereo not drawn)
79
O=C(CCl)N(CCCNC(=O)C(F)(F)F)c1cccc(C(F)(F)F)c1
62

From here, focus on the item given below.
Input: Answer with reported inhibition of COc1ccc(N(C(=O)CCl)C(C(=O)NCCc2ccccc2)c2cccs2)cc1Cl (stereo not drawn)
Output: 85

====

- assaySystem: Glutathione S-transferase omega-1 (Homo sapiens) (UniProt P78417)
- procedureSummary: selectivity of GSTO1 blockers across lysate enzymes – cell lysate, MDA-MB-435 proteome, gel ABPP, endogenous enzyme, selectivity assay for GSTO1 inhibitor project, late-stage follow-up (AID 463102)
- conditionsUsed: competitive gel ABPP, SE-Rh probe, at 0.1 µM, stronger effect = higher value
measurementName: inhibition (%)
Numbers only; they are read as %.

See these solved cases before continuing.
C#CCN(CCCN(C(=O)CCl)c1ccc([N+](=O)[O-])cc1)C(=O)C(F)(F)F
100
O=C(CCl)N(CCCNC(=O)C(F)(F)F)c1ccc(F)cc1
25
COc1ccc(C(C(=O)NC2CCCCC2)N(C(=O)CCl)c2cccc(Cl)c2)cc1 (stereo not drawn)
98
CCCCCCCCCCN(C(=O)CCl)c1ccc([N+](=O)[O-])cc1
67
O=C(NC1CCCCC1)C(c1cccnc1)N(C(=O)CCl)c1cccc(Cl)c1 (stereo not drawn)
100
O=C(NC1CCCCC1)C(c1cccnc1)N(C(=O)CCl)c1ccc(F)cc1 (stereo not drawn)
71

Input: Please look at `O=C(CCl)N(CCCNC(=O)C(F)(F)F)c1ccc(Cl)cc1` and tell me its recorded inhibition on Glutathione S-transferase omega-1 (Homo sapiens) (UniProt P78417).
Output: 85

Input: Please look at `O=C(CCl)N(CCCNC(=O)C(F)(F)F)c1ccccc1` and tell me its recorded inhibition on Glutathione S-transferase omega-1 (Homo sapiens) (UniProt P78417).
Output: 16
